target: Metabotropic glutamate receptor 7 (Homo sapiens); assay: Activity at human mGluR7 by measuring cAMP formation in BHK cells
Sequence (Q14831 whole entry): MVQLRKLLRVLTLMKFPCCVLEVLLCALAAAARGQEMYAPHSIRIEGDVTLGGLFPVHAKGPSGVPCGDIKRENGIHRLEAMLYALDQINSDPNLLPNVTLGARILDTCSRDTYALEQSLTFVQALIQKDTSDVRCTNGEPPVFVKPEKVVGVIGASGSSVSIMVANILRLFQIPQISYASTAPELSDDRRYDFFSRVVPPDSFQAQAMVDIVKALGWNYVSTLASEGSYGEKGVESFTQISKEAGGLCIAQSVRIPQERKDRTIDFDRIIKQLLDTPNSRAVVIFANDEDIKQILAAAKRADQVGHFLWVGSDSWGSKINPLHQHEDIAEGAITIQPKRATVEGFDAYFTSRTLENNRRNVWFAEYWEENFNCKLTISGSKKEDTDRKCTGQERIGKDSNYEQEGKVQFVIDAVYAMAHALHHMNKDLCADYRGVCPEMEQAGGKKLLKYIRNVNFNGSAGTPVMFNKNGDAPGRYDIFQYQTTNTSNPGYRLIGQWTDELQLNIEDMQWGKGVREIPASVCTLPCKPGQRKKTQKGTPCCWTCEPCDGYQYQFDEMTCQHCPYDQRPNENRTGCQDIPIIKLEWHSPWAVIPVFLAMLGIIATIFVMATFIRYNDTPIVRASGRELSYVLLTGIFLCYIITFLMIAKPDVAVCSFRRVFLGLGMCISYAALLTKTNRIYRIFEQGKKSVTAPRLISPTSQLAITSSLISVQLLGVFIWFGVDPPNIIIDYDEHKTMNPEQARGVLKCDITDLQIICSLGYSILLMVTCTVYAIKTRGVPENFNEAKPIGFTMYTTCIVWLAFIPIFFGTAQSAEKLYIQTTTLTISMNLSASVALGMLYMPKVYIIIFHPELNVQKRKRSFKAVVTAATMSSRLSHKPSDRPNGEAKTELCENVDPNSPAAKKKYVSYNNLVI
measurement.kind: EC50 (µM)

N[C@@H](CCP(=O)(O)O)C(=O)O: 188
N[C@H](C(=O)O)[C@H]1C[C@@H]1P(=O)(O)O: 700
